# Test system: HCT116/54C cells
# assay-notes: In vitro cytotoxicity, 4 h exposure oxic/anoxic, 5-day regrowth, sulforhodamine B
# Format: cell-based, human
# measurement-context: HCT116/54C, IC50(oxic)/IC50(anoxic)
I'd be grateful if you could share measured HCR for these entries.

Input line: Please give the measured HCR for this molecule: `O=[N+]([O-])c1nccn1CCS(=O)(=O)NCCO`
Output line: >7.3

Input line: Please give the measured HCR for this molecule: O=[N+]([O-])c1nccn1CS(=O)(=O)NC(CO)C(O)CO (centres unmarked)
Output line: 1.3

Input line: Please give the measured HCR for this molecule: `COCCNS(=O)(=O)CCn1c([N+](=O)[O-])cnc1C`
Output line: >1.8

Input line: Please give the measured HCR for this molecule: O=C(Cn1ccnc1[N+](=O)[O-])NCCO [Compound 2, etanidazole, reference compound]
Output line: >14.8

Input line: Please give the measured HCR for this molecule: `Cc1ncc([N+](=O)[O-])n1CCS(=O)(=O)NCCO`
Output line: >1.1
